Let's look at some compounds and their measured IC50.
Test system: HepG2
assay.explanation: Antiproliferative activity against human HepG2 cells after 48 hrs by MTT assay
Format: functional, cell-based
test.parameters: HepG2, 48 h
Give your result in µM as a bare value.

Examples with their reported IC50 follow.
> print(dat)
                                item.smiles  parameter.measured  value
1          O=C(NO)c1ccc(/C=C/c2ccc(O)cc2)o1                IC50   20.9
2  Cc1ccc(C(=O)/C=C/c2ccc(/C=C/C(=O)NO)o2)cc1                IC50     16
3      CN(C)c1ccc(/C=C/c2ccc(C(=O)NO)o2)cc1                IC50   31.7

Prompt: Can you look up the measured IC50 of COc1cc(/C=C/c2ccc(C(=O)NO)o2)ccc1OCc1ccccc1 for me?
Completion: 30.9

Prompt: Can you look up the measured IC50 of O=C(/C=C/c1ccc(/C=C/C(=O)c2ccc(Cl)cc2)o1)NO for me?
Completion: 6.74
